The measurements presented in this section are drawn from ChEMBL document CHEMBL4513141.

Tested on: Klebsiella pneumoniae
Conditions: Concentration 20 uM; ASSAY_TEST Inhibition of Bacterial Growth; detection method Absorption (OD600); MEDIA CAMHB; plate type 384well; NBS; CORNING #3640; time 18 hr
Description: Antibacterial activity against Klebsiella pneumoniae MDR ATCC 70063 (CO-ADD:GN_003); MIC in CAMBH media using NBS plates, by OD(600)
Potency and affinity values are given separately.
Think of 10% as a floor: if Inhibition stands on it or above, it is MET; beneath it, NOT MET.

Evaluate CCC(=O)O[C@]1(C(=O)SCF)[C@H](C)C[C@H]2[C@@H]3C[C@H](F)C4=CC(=O)C=C[C@]4(C)[C@@]3(F)[C@@H](O)C[C@@]21C [FLUTICASONE PROPIONATE] : Inhibition at minimum 10%?
NOT MET

Evaluate COc1ccc(/C=C/C(=O)Nc2ccccc2C(=O)O)cc1OC : Inhibition at minimum 10%?
NOT MET

Evaluate COc1cc2nc(N3CCN(C(=O)C4COc5ccccc5O4)CC3)nc(N)c2cc1OC (stereo unspecified) : Inhibition at minimum 10%?
MET
